- Test system: Enterobacter cloacae NCTC 13406
- testProtocol: MIC, broth microdilution (CLSI) versus planktonic bacteria
- Type: cell-based
- experimentalContext: NCTC13406; Enterobacter cloacae NCTC 13406; 16-20 h; mode of three independent experiments; read-out: MIC, Ecl NCTC 13406
measuredParameter: MIC

# structureSmiles, measuredTarget, MIC
data = [
    ("COc1ccc2ccc(=O)n(CCN[C@H]3CC[C@H]4[C@@H](C3)OC(=O)N4c3ccc4c(n3)NC(=O)CO4)c2n1", "Enterobacter cloacae NCTC 13406", "< 1 µg/mL"),
    ("O=C1COc2ccc(N3C(=O)O[C@@H]4C[C@@H](NCCn5c(=O)ccc6ccc(OCCO)nc65)CC[C@@H]43)nc2N1", "Enterobacter cloacae NCTC 13406", "10 to 100 µg/mL"),
    ("NCCOc1ccc2ccc(=O)n(CCN[C@H]3CC[C@H]4[C@@H](C3)OC(=O)N4c3ccc4c(n3)NC(=O)CO4)c2c1", "Enterobacter cloacae NCTC 13406", "> 100 µg/mL"),
    ("COc1cnc2ccc(=O)n(CCN[C@H]3CC[C@H]4[C@@H](C3)OC(=O)N4c3ccc4c(n3)NC(=O)CO4)c2c1", "Enterobacter cloacae NCTC 13406", "1 to 10 µg/mL"),
    ("O=C1COc2cnc(N3C(=O)O[C@H]4C[C@@H](NCCn5c(=O)cnc6cc(F)c(F)cc65)CC[C@@H]43)nc2N1", "Enterobacter cloacae NCTC 13406", "10 to 100 µg/mL"),
    ("O=C1COc2ccc(N3C(=O)O[C@H]4C[C@@H](NCCn5c(=O)cnc6ccc(F)cc65)CC[C@@H]43)nc2N1", "Enterobacter cloacae NCTC 13406", "< 1 µg/mL"),
]

Each compound below has a reported value. Please supply its MIC.
1. N#Cc1ccc(-c2cccc(CN[C@H]3CC[C@H]4[C@H](C3)OC(=O)N4c3ccc4c(n3)NC(=O)CO4)c2)nc1
2. COc1cnnc(-c2cccc(CN[C@@H]3CC[C@@H]4[C@@H](C3)OC(=O)N4c3ccc4c(n3)NC(=O)CO4)c2O)c1
3. COc1cccc(-c2cccc(CN[C@@H]3CC[C@@H]4[C@@H](C3)OC(=O)N4c3ccc4c(n3)NC(=O)CO4)c2)n1

Out:
1. 1 to 10 µg/mL
2. 1 to 10 µg/mL
3. 1 to 10 µg/mL
